Molecular target: MAPKAPK2 Recombinant Human Protein (Homo sapiens, UniProt P49137)
Sequence (P49137 whole entry): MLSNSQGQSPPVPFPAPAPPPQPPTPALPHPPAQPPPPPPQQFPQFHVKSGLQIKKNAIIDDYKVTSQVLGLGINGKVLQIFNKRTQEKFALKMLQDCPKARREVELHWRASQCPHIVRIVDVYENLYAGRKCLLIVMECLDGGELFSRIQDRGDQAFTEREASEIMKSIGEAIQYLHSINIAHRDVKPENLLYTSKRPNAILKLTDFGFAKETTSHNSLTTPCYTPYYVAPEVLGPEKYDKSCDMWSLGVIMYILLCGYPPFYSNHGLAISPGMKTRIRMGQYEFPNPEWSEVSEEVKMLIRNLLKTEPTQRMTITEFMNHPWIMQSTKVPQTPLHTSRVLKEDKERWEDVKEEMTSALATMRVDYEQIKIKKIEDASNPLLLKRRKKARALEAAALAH
Test: MK2 kinase assay (Z'-LYTE kinase assay kit)
Conditions: inhibition of MK2 biochemical activity; 90 min incubation at room temperature
pIC50: −log10 of the molar value.
outcome.measure: pIC50

In the examples that follow, each entry is paired with its recorded pIC50.
molecule | pIC50
CN(CCO)CC1CCN(c2ccc3c(c2)Cn2cc(-c4ccc(C#N)cc4)cc2-c2nccn2-3)C1=O (stereo not shown) [Example 37] | 7.00 to 7.30
CN(CCO)C[C@H]1CC(=O)N(c2ccc3c(c2)Cn2cc(-c4ccc(F)cc4)cc2-c2nccn2-3)C1 [Example 89] | 7.00 to 7.30
CN(C)CCN1CCN(c2ccc3c(c2)Cn2cc(-c4ccc(C#N)cc4)cc2-c2nccn2-3)C1=O [Example 57] | > 7.30

Prompt: Hello, please tell me recorded pIC50 for this one: CN(CC(CN)CO)C(=O)c1ccc2c(c1)Cn1cc(-c3ccc(C#N)cc3)cc1-c1nccn1-2 (stereo not shown) [Example 136]
Completion: 7.00 to 7.30
